Origin of the recorded values: ChEMBL document CHEMBL3301361

- Protocol text: physchem
- Recorded conditions: octan-1-ol/water, pH 7.4, LogD7.4
Class membership depends on logD alone; the intervals are 1 (below 2), 2 (2 to below 3), 3 (3 or more)

{"columns": ["Compound", "Cat"],
 "data": [
  ["CCN(CC)CCNc1ncnc2c1sc1nc(N3CCOCC3)c3c(c12)CCCC3", 3],
  ["COc1ccnc(NC2CCN(C(=O)c3ccc(Cl)cc3)CC2)c1", 2],
  ["Cc1oc(-c2ccccc2)nc1CCOc1ccc(C[C@H](Nc2ccccc2C(=O)c2ccccc2)C(=O)O)cc1", 3],
  ["C=CCOc1ccccc1OCC(O)CNC(C)C (stereo not given)", 1],
  ["N#Cc1cccc(C(=O)Nc2cc(-c3ccccc3)nn2-c2ccccc2)c1", 3],
  ["COc1cc(C)c(S(=O)(=O)N(C)CCOCC(=O)N2CCC(C3CCN(C)CC3)CC2)c(C)c1", 1],
  ["CS(=O)(=O)Cc1ccc2ccn(-c3cc(NC4CC4)n4ncc(C#N)c4n3)c2c1", 2],
  ["O=C(c1cc(Cc2n[nH]c(=O)c3ccccc23)ccc1F)N1CCN(c2ccccn2)CC1", 2],
  ["Cc1ccc(F)c(Nc2ccnc(Nc3ccc(OCC(O)CN(C)C)cc3)n2)c1 (stereo not given)", 2],
  ["Cc1cccc(NS(=O)(=O)c2ccc(-c3ccc(C#N)cc3)cc2)n1", 2],
  ["O=C(O)COc1ccc(Cl)cc1CN1CCN(S(=O)(=O)c2ccccc2)CC1", 1],
  ["CON(C)C(=O)c1c(Cn2c(C)nc(Cl)c2Cl)sc2c1c(=O)n(C)c(=O)n2CC(C)C", 2],
  ["CNc1c(Br)cnc2[nH]c(-c3ccc(S(C)(=O)=O)cc3)nc12", 2],
  ["CCOC(=O)c1ccc(N)cc1", 1],
  ["COc1cc2c(ccc(=O)n2CCN2CCC(NCc3cc4c(cn3)OCCO4)CC2)cn1", 1],
  ["CN[C@@H](C)C(=O)N[C@H](C(=O)N[C@H]1C[C@@H]2CC[C@H]1N(CCc1ccccc1)C2)C1CCCCC1", 1],
  ["O=C1NC(c2ccc(Br)cc2)Nc2ccccc21 (stereo not given)", 2],
  ["O=C(NCCCCc1ccccc1)c1ccccc1", 3]
]}

---

- Protocol text: physchem
- Recorded conditions: octan-1-ol/water, pH 7.4, LogD7.4
Could you label it TRUE if measured logD is 2 or higher, and FALSE otherwise?

{"columns": ["Molecule", "Cat"],
 "data": [
  ["O=C(O)C(c1ccccc1)N1CCC(N2CCC(Oc3ccc(Cl)c(Cl)c3)CC2)CC1 (stereo not given)", "TRUE"],
  ["CN(C)CCCOc1ccc(-c2cc(C(N)=O)c(NC(N)=O)s2)cc1", "FALSE"],
  ["COCCNCc1cncc(-c2ccc(F)cc2OC)n1", "FALSE"],
  ["COc1ccc2c(Oc3ccc(CC(=O)Nc4cn(C)nc4C)c(OC)c3)ccnc2c1", "TRUE"],
  ["COc1cc(C(=O)Nc2ccc(N3CCOCC3)cc2)nc2c(N3CCN(C)CC3)cc(F)cc12", "TRUE"]
]}

---

- Protocol text: in vitro
- Recorded conditions: human, microsomes
Could you mark each record 1 if its microsomal CLint falls strictly under 10 µL/min/mg, and 0 if it equals or exceeds it?

{"columns": ["Compound", "Cat"],
 "data": [
  ["CCCCNc1nc(SCCC)nc2c1nnn2[C@@H]1C[C@H](CO)[C@@H](O)[C@H]1O", 1],
  ["COc1ccc(C(=O)NCc2cn(-c3cc(C)nc4ccc(OC)cc34)nn2)cc1", 0],
  ["O=C(c1csc2c1CCCC2)N1CCCCC1", 0],
  ["CN(C)CCCOc1nn(Cc2ccccc2)c2ccccc12", 0],
  ["O=C(NC1CC1)c1cn(-c2cccc(C#Cc3cccnc3)c2)c2ncccc2c1=O", 1],
  ["CN(C)C(C)(C(=O)OC1CC[N+](C)(C)CC1)c1ccccc1 (stereo not given)", 1],
  ["c1cn(-c2ccc(Oc3nccc(Oc4ccc5c(c4)OCO5)n3)cc2)cn1", 0],
  ["Cc1ccc(NC(=O)c2cccc(N3CCOCC3)c2)cc1NC(=O)c1ccc(OCc2cscn2)cc1", 0],
  ["COc1ccccc1CNCc1ccc(CCNC[C@H](O)c2ccc(O)c3[nH]c(=O)sc23)cc1", 0],
  ["CCN(CC)Cc1cc(Nc2ccnc3cc(Cl)ccc23)ccc1O", 0],
  ["Cc1c[nH]c(-c2cnc(NCCNc3ccc(C#N)cn3)nc2-c2ccc(Cl)cc2Cl)n1", 0],
  ["O=C(Nc1c(Cl)cncc1Cl)c1ccc(OC(F)F)c(OCC2CC2)c1", 1],
  ["O=C(O)c1cccc(CN2CCC(CN3CCC(Oc4ccc(Cl)c(Cl)c4)CC3)CC2)c1", 1],
  ["CS(=O)(=O)c1ccc([C@@H](CC2CCCC2)C(=O)Nc2nccs2)cc1", 0],
  ["Cc1cc(OCC(=O)NCc2ccccc2)c2cc(Br)ccc2n1", 0],
  ["C[C@H]1CN=C(N)c2sccc2O1", 1],
  ["CS(=O)(=O)NC(=O)CCCc1c(-c2ccc(F)cc2)[nH]c2ccc(C#N)cc12", 1],
  ["O=C(NS(=O)(=O)c1ccc(F)cc1)N1CCC(N2CCC(Oc3ccc(Cl)c(Cl)c3)CC2)CC1", 0],
  ["O=C(CO)N1CCC(c2[nH]nc(-c3ccc(Cl)cc3F)c2-c2ccncn2)CC1", 1],
  ["O=C(O)[C@@H](c1ccccc1)N1CCC(CN2CCC(Oc3ccc(Cl)c(Cl)c3)CC2)CC1", 1]
]}

---

- Protocol text: physchem
- Recorded conditions: octan-1-ol/water, pH 7.4, LogD7.4
Assay endpoint: logD

{"columns": ["Smiles structure", "Assay endpoint", "Recorded measurement"],
 "data": [
  ["Nc1cc(C(=O)Nc2cccc(-c3nnn[nH]3)c2)cc(C(F)(F)F)c1", "logD", 0.2],
  ["Cc1nnsc1C(=O)Nc1ccccc1", "logD", 0.97],
  ["O=C(CCc1ccncc1)Nc1ccc(C(=O)c2ccccc2)cc1", "logD", 3.4],
  ["CC(C)(C)OC(=O)N1CCN(c2ncc(OCc3ccc(S(C)(=O)=O)cc3)cn2)CC1", "logD", 3.27],
  ["COc1ncc(-c2cccc3c2C[C@H](NC(=O)c2ccc(OCC(F)(F)F)nc2)CO3)cn1", "logD", 4.3],
  ["CCN(CC)CC(=O)Nc1c(C#N)cnn1-c1ccccc1", "logD", 0.4]
]}

---

- Protocol text: in vitro
- Recorded conditions: SD, HW or BN, rat, plasma
The threshold is inclusive: fraction unbound at 5 h of exactly 0.03 counts as true; values below receive false.

{"columns": ["Compound", "Cat"],
 "data": [
  ["Cc1ccc(S(=O)(=O)Nc2c(C(=O)N[C@@H](C)C(C)(C)C)c(C)nn2CC(F)(F)F)cc1", "false"],
  ["CC(C)(C)NS(=O)(=O)c1cncc(-c2ccc3nc(NC(=O)NCC(=O)N4CCOCC4)nn3c2)c1", "true"],
  ["O=[N+]([O-])c1c(Nc2ccc(-n3cncn3)cc2)ncnc1N1CCC(Sc2ccccn2)CC1", "false"],
  ["COCC(C)n1nc(C)c(C(=O)N[C@@H](C)C(C)(C)C)c1NS(=O)(=O)c1ccc(C)cc1 (some centres not stated)", "true"],
  ["Cc1ccc(S(=O)(=O)Nc2c(C(=O)N[C@@H](C)C(C)(C)C)c(C)nn2C2CCS(=O)(=O)CC2)cc1", "true"],
  ["Cc1cc(C)c(C)c(Cn2ccc3c(/C=N/NC(=O)c4ccc(O)c(C#N)c4)cccc32)c1C", "false"],
  ["O=c1cc(N2CCOCC2)nc(NCc2cccc(Cl)c2Cl)[nH]1", "false"],
  ["COc1ccc(CCO[C@@H]2CCCC[C@H]2N2CC[C@@H](O)C2)cc1OC", "true"],
  ["CC(C)(C)NC(=O)[C@@H]1C[C@@H]2CCCC[C@@H]2CN1C[C@@H](O)[C@H](Cc1ccccc1)NC(=O)[C@H](CC(N)=O)NC(=O)c1ccc2ccccc2n1", "false"],
  ["Cc1ccc(S(=O)(=O)Nc2c(C(=O)NCc3ccccc3)cnn2-c2ccccc2)cc1", "false"],
  ["N#Cc1cccc(-c2cc(Cl)ccc2OCC(=O)O)c1", "true"],
  ["CC(C)(C)C(NC(=O)c1ccccc1)C(=O)c1ccc(Cl)cc1 (configuration not stated)", "false"],
  ["N=C(N)c1ccc2[nH]c(-c3n[nH]c(-c4ccccc4)c3O)nc2c1", "true"],
  ["CCC(CC)NC(=O)c1cnn(-c2ccccc2)c1NS(=O)(=O)c1ccc(C)cc1", "false"],
  ["O=C(Nc1c(Cl)cncc1Cl)c1ccc(OC(F)F)c(OCC2CC2)c1", "false"],
  ["CC[C@@H](Nc1c(Nc2cccc(C(=O)N(C)C)c2O)c(=O)c1=O)c1ccc(C)o1 [NAVARIXIN ANHYDROUS]", "false"],
  ["CCCN(c1cccc(C#N)c1)P(=O)(c1ccccc1)c1ccccc1", "true"],
  ["Cc1nn(-c2ccccc2)c(NS(=O)(=O)c2cccc(CN3CCOCC3)c2)c1C(=O)N[C@@H](C)C(C)(C)C", "true"],
  ["C[C@H]1CN(c2cc(N(CCO)Cc3cccc4ccccc34)[nH]c(=O)n2)CCO1", "true"],
  ["O=c1[nH]c2cc(C(F)(F)F)ccc2n1-c1cc(C(F)(F)F)ccc1O", "false"],
  ["CC(C)(C)OC(=O)NC[C@H]1CC[C@H](CNC(=O)c2cc(-c3ccncc3)nc3ccccc23)CC1", "false"],
  ["O=C(CO)N1CCC(c2[nH]nc(-c3ccc(Cl)cc3F)c2-c2ccncn2)CC1", "true"],
  ["Cc1nn(C2CCCCC2)c(N)c1-c1ccccc1", "true"],
  ["C[C@H](Nc1ncc(Cl)c(Nc2cc(C3CC3)[nH]n2)n1)c1ccc(F)cn1", "false"],
  ["COCCOC(=O)C1=C(C)NC(C)=C(C(=O)OC(C)C)C1c1cccc([N+](=O)[O-])c1 (configuration not stated)", "false"],
  ["CCOc1ncc(C)c2c1[C@H](c1ccc(C#N)cc1OC)C(C(N)=O)=C(C)N2", "false"],
  ["O=S(=O)(Nc1nncs1)c1cc(Cl)c(Oc2ccc(C(F)(F)F)cc2-c2ccnnc2)cc1F", "false"],
  ["O=C(CC1CCN(Cc2ccn(-c3ccc(C(F)(F)F)cn3)c2)CC1)NC(c1ccc(F)cc1)c1ccc(F)cc1", "false"],
  ["O=C(N[C@@H]1COc2cccc(-c3ccc(CO)nc3)c2C1)c1ccc(OCC(F)(F)F)nc1", "true"],
  ["CC(C)(C)NC(=O)NCCN1CCOC(CNC(=O)c2cc(Cl)cc(Cl)c2)C1 (configuration not stated)", "true"],
  ["N#Cc1ccc2[nH]c(-c3ccc(F)cc3)c(CCCC(=O)NS(=O)(=O)C(F)(F)F)c2c1", "true"],
  ["C[C@H](c1nc2ncccc2c(=O)n1-c1ccc(Cl)cc1)N(CC1CCS(=O)(=O)CC1)C(=O)Cc1ccc(C(F)(F)F)c(F)c1", "true"],
  ["OCCNC(=S)NCc1cccc(Cl)c1F", "true"],
  ["CCNC(=O)C[C@@H]1N=C(c2ccc(Cl)cc2)c2cc(OC)ccc2-n2c(C)nnc21", "true"],
  ["CCCCNc1cc(C(=O)O)cc(S(N)(=O)=O)c1Oc1ccccc1 [BUMETANIDE]", "true"],
  ["CCCN(c1cccnc1)P(=O)(c1ccccc1)c1ccccc1", "true"],
  ["Fc1ccc(-c2cc(C(F)(F)F)nc(-n3cc(Cl)cn3)n2)cc1", "false"]
]}
